Tgt: fumarate reductase (FrdABCD), FrdB subunit (Escherichia coli, UniProt P0A8Q0+P0A8Q3+P0AC47)
Assay Overview: fluorescence quench titration in enriched membranes
Measure Name: pKd
Lab note: report pKd as minus log10 of the concentration in molar units, number only.

Looking up CCCCCCCc1cc(O)c2ccccc2[n+]1[O-] [HOQNO, 2-n-heptyl-4-hyroxyquinoline-N-oxide] , I see its pKd listed as 8.30

---

Tgt: fumarate reductase (FrdABCD), FrdB subunit (Escherichia coli, UniProt P0A8Q0+P0A8Q3+P0AC47, P0AC47:K229E)
Assay Overview: biochemical
Measure Name: Kd (nM)
Give the number; nM is assumed, so skip it.

Looking up CCCCCCCc1cc(O)c2ccccc2[n+]1[O-] [HOQNO, 2-n-heptyl-4-hyroxyquinoline-N-oxide] , I see its Kd listed as 110

---

Tgt: fumarate reductase (FrdABCD), FrdB subunit (Escherichia coli, UniProt P0A8Q0+P0A8Q3+P0AC47, P0AC47:K229L)
Assay Overview: biochemical
Measure Name: Kd (nM)
Give the number; nM is assumed, so skip it.

Looking up CCCCCCCc1cc(O)c2ccccc2[n+]1[O-] [HOQNO, 2-n-heptyl-4-hyroxyquinoline-N-oxide] , I see its Kd listed as 110

---

Tgt: fumarate reductase (FrdABCD), FrdB subunit (Escherichia coli, UniProt P0A8Q0+P0A8Q3+P0AC47, P0AC47:K229R)
Assay Overview: biochemical
Measure Name: pKd
Lab note: report pKd as minus log10 of the concentration in molar units, number only.

Looking up CCCCCCCc1cc(O)c2ccccc2[n+]1[O-] [HOQNO, 2-n-heptyl-4-hyroxyquinoline-N-oxide] , I see its pKd listed as 7.10

---

Tgt: fumarate reductase (FrdABCD), FrdB subunit (Escherichia coli, UniProt P0A8Q0+P0A8Q3+P0AC47, P0AC47:S204R)
Assay Overview: biochemical
Measure Name: pKd
Lab note: report pKd as minus log10 of the concentration in molar units, number only.

Looking up CCCCCCCc1cc(O)c2ccccc2[n+]1[O-] [HOQNO, 2-n-heptyl-4-hyroxyquinoline-N-oxide] , I see its pKd listed as 8.30
